Structures can show the parent of a compound that is named as a salt.
value_type: melting point

Study these solved cases before continuing.
NC(=O)c1nn(-c2ccc(F)cc2)c2c1CCc1ccc(NC(=O)c3nc(N4CCOCC4)ccc3Cl)cc1-2 = 252 to 254 °C
NC(=O)c1nn(-c2ccc(F)cc2)c2c1CCc1ccc(NC(=O)c3cccnc3N3CCNCC3)cc1-2 = 156 to 157 °C
CNc1ncccc1C(=O)Nc1ccc2c(c1)-c1c(c(C(N)=O)nn1-c1ccc3c(c1)OCO3)CC2 = 273 to 275 °C
CN1CCN(c2ccc(Cl)c(C(=O)Nc3ccc4c(c3)-c3c(c(C(N)=O)nn3-c3ccc(F)cc3)CC4)n2)CC1 (as salt: salt) = 218 to 220 °C
Cc1cc(Cl)ncc1C(=O)Nc1ccc2c(c1)-c1c(c(C(N)=O)nn1-c1ccc(F)cc1)CC2 = 280 to 284 °C

Which measured melting point value corresponds to CN1CCN(c2ccc(Cl)c(C(=O)Nc3ccc4c(c3)-c3c(c(C(N)=O)nn3-c3ccc5c(c3)OCO5)CC4)n2)CC1 (as salt: salt) ?
264 to 266 °C (dec.)

Which measured melting point value corresponds to "Cc1cc(N2CCOCC2)ncc1C(=O)Nc1ccc2c(c1)-c1c(c(C(N)=O)nn1-c1ccc(F)cc1)CC2" ?
301 °C (dec.)

---

Catalogue of IC50 values
# target: IKK2 (Homo sapiens, UniProt O14920)
# Construct: made in house; host or cells: insect cells (baculovirus, pFastBac; SF9)
# Sequence (O14920 whole entry): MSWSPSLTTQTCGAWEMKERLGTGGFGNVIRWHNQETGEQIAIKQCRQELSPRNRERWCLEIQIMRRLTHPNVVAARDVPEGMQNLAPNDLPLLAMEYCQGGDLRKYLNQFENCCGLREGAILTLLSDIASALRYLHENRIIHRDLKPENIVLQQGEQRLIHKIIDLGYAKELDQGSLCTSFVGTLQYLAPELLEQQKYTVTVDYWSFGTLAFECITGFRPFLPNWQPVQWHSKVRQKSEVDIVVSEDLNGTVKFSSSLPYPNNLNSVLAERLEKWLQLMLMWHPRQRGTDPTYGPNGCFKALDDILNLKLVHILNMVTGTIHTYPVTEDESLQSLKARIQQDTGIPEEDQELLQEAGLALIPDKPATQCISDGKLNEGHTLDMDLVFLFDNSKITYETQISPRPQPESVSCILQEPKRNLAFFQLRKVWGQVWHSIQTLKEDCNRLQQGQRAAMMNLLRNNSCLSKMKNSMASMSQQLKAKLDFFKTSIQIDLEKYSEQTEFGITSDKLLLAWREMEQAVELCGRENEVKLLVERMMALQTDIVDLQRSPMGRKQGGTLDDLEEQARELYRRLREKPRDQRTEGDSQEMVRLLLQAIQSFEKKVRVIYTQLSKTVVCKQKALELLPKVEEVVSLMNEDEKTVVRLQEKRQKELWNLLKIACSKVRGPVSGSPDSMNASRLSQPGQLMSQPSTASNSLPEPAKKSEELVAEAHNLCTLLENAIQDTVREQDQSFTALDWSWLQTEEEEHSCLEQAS
# method: IKKβ Resin Enzyme Assay (IKK2 resin)
# Assay type: biochemical
# test_context: read-out: IKK-2 resin IC50

CS(=O)(=O)c1ccc(-n2nc(C(N)=O)c3c2-c2cc(NC(=O)c4ccccc4Cl)ccc2CC3)nc1 [Example 367] = ≤ 1000 nM
CS(=O)(=O)c1ccc(-n2nc(C(N)=O)c3c2-c2cc(NC(=O)c4ccccc4Cl)ccc2CC3)cn1 [Example 368] = ≤ 1000 nM
CNS(=O)(=O)c1ccc(-n2nc(C(N)=O)c3c2-c2cc(NC(=O)c4ccccc4Cl)ccc2CC3)cc1 [Example 422] = ≤ 1000 nM
N#Cc1ccc(-n2nc(C(N)=O)c3c2-c2cc(NC(=O)c4ccccc4Cl)ccc2CC3)cc1 [Example 369] = ≤ 1000 nM
C=CCNS(=O)(=O)c1ccc(-n2nc(C(N)=O)c3c2-c2cc(NC(=O)c4ccccc4Cl)ccc2CC3)cc1 [Example 421] = ≤ 1000 nM

Please look at the following compound next.
Which measured IC50 value corresponds to NC(=O)c1nn(-c2ccc(N3CCOCC3)cc2)c2c1CCc1ccc(NC(=O)c3cccnc3Cl)cc1-2 [Example 288] ?
1000 to 10000 nM

---

# target: IKK2 (Homo sapiens)
# Construct: made in house; host or cells: insect cells (baculovirus, pFastBac; SF9)
# method: IKKβ Resin Enzyme Assay (IKK2 resin)
# Type: biochemical
# test_context: Table 7; read-out: IKK2 Resin IC50
Catalogue of IC50 values

NC(=O)c1nn(-c2ccc(F)cc2)c2c1CCc1ccc(NC(=O)c3cc(N4CCNCC4)ncc3Cl)cc1-2 = ≤ 1000 nM
CN1CCN(c2ccc(Cl)c(C(=O)Nc3ccc4c(c3)-c3c(c(C(N)=O)nn3-c3ccc(F)cc3)CC4)c2)CC1 = ≤ 1000 nM
CN1CCN(c2ccc(Cl)c(C(=O)Nc3ccc4c(c3)-c3c(c(C(N)=O)nn3-c3ccc(F)cc3)CC4)n2)CC1 = ≤ 1000 nM

Please look at the following compound next.
Which measured IC50 value corresponds to "NC(=O)c1nn(-c2ccc(F)cc2)c2c1CCc1ccc(NC(=O)c3cccnc3N3CCNCC3)cc1-2" ?
≤ 1000 nM
